Data origin, for the record: paper PMC5909127

Examples of compounds with documented Kd follow.
Target: BRD4 BD2 WT (Homo sapiens, UniProt O60885)
Test: ITC
Type: binding
Write down the numeric answer in µM and omit the unit.

Previously resolved entries follow.
{"Compound": "CC[C@@H](C(=O)OC)[C@@H]1N=C(c2ccc(Cl)cc2)c2cc(OC)ccc2-n2c(C)nnc21 (relative stereo)", "Readout Name": "Kd", "Measured": 35}
{"Compound": "COC(=O)[C@H](C)[C@@H]1N=C(c2ccc(Cl)cc2)c2ccc(OC)cc2-n2c(C)nnc21 (racemic) [Compound 7]", "Readout Name": "Kd", "Measured": 33}

Continue with the next compound.
**Q:** Suppose we examine the compound COC(=O)[C@H](C)[C@@H]1N=C(c2ccc(Cl)cc2)c2ccc(OC)cc2-n2c(C)nnc21 [(2R,3S)-7] ; what Kd value has been reported?
**A:** 29

* * *

Biological target: BRD2 BD2 WT (Homo sapiens, UniProt P25440)
Sequence (P25440 344-455): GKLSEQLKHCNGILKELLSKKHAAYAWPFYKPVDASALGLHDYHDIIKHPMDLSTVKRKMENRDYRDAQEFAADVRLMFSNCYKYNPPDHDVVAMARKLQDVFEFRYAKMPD
Assay: ITC
Type: binding
Conditions: ITC, 30°C; read-out: Kd BRD2 BD2 WT
Readout Name: pKd
Expect pKd as a plain number equal to -log10 of the molar concentration.

**Q:** Suppose we examine the molecule CCNC(=O)[C@H](C)[C@@H]1N=C(c2ccc(Cl)cc2)c2cc(OC)ccc2-n2c(C)nnc21 (relative stereo) ; what pKd value has been reported?
**A:** 5.62

* * *

Examples of compounds with documented Kd follow.
Target: BRD2 BD2 WT (Homo sapiens)
Test: ITC
Format: binding
Write down the numeric answer in µM and omit the unit.

{"Compound": "C=CC[C@@H](C(=O)OC)[C@@H]1N=C(c2ccc(Cl)cc2)c2cc(OC)ccc2-n2c(C)nnc21 (racemic)", "Readout Name": "Kd", "Measure Unit": "µM", "Measured": 5.8}

Continue with the next compound.
**Q:** Suppose we examine the compound CC[C@@H](C(=O)OC)[C@@H]1N=C(c2ccc(Cl)cc2)c2cc(OC)ccc2-n2c(C)nnc21 (relative stereo) ; what Kd value has been reported?
**A:** 3.3

* * *

Assay: Intrinsic Clearance
Settings: mouse liver microsomes
Readout Name: CL int (ml min^–1 g^–1)
Write down the numeric answer in ml min^–1 g^–1 and omit the unit.

{"Compound": "C=CC[C@@H](C(=O)OC)[C@@H]1N=C(c2ccc(Cl)cc2)c2ccc(OC)cc2-n2c(C)nnc21 (relative stereo) [Compound 9]", "CL int / ml min^–1 g^–1": 9.4}
{"Compound": "CC[C@@H](C(=O)OC)[C@@H]1N=C(c2ccc(Cl)cc2)c2ccc(OC)cc2-n2c(C)nnc21 (racemic) [Compound 8]", "CL int / ml min^–1 g^–1": 4.1}

**Q:** Suppose we examine the compound CCNC(=O)[C@H](C)[C@@H]1N=C(c2ccc(Cl)cc2)c2ccc(OC)cc2-n2c(C)nnc21 (relative stereo) [Compound 21] ; what CL int value has been reported?
**A:** 1.5

**Q:** Ok, now CC[C@@H](C(=O)OC(C)(C)C)[C@@H]1N=C(c2ccc(Cl)cc2)c2ccc(OC)cc2-n2c(C)nnc21 [Compound 25]
**A:** 31.0

**Q:** Ok, now CCC[C@@H](C(=O)OC)[C@@H]1N=C(c2ccc(Cl)cc2)c2cc(OC)ccc2-n2c(C)nnc21 (relative stereo) [Compound 6]
**A:** 5.2

**Q:** Ok, now CC[C@@H](C(=O)OC)[C@@H]1N=C(c2ccc(Cl)cc2)c2cc(OC)ccc2-n2c(C)nnc21 (relative stereo) [Compound 4]
**A:** 1.5
